Tested on: HL-60 (acute myeloid leukemia)
Assay: Cell proliferation assay (IncuCyte)
Format: cell-based
Details: Homo sapiens, HL-60; 72 h, duplicate, mean ± deviation
pIC50: −log10 of the molar value.
Class MET: pIC50 at least 5. Class NOT MET: pIC50 below 5.

1. COC(=O)[C@]1(C)CCC[C@@]2(C)[C@@H]3CC[C@@H]4C[C@@]3(CC[C@@H]21)C[C@@]4(CCC(=O)O)N=[N+]=[N-] [Compound 14] ... NOT MET
2. COC(=O)CCC1(N=[N+]=[N-])C2CCC3C4(C)CCCC(C)(C(=O)OC)C4CCC3(C2)C1O (centres unmarked) [Compound 26] ... NOT MET
3. CCOC(=O)CC[C@@]1(N=[N+]=[N-])C[C@@]23CC[C@H]4[C@@](C)(CCC[C@@]4(C)C(=O)OC)[C@@H]2CC[C@@H]1C3 [Compound 11] ... MET
4. COC(=O)C1(C)CCCC2(C)C3CCC4CC3(C=C4CCC#N)CCC12 (centres unmarked) [Compound 16] ... NOT MET
5. COC(=O)[C@]1(C)CCC[C@@]2(C)[C@@H]3CC[C@@H]4C[C@@]3(CC[C@@H]21)[C@H]1OC(=O)CC=C41 [Compound 22] ... MET
6. COC(=O)C1(C)CCCC2(C)C3CCC4CC3(CCC12)CC41CCC(=O)N1 (centres unmarked) [Compound 12] ... NOT MET
7. COC(=O)C1(C)CCCC2(C)C1CCC13CC(CCC21)C1(CCC(=O)N1)C3O (centres unmarked) [Compound 27] ... NOT MET
8. CC1(C(=O)O)CCCC2(C)C1CCC13CC(CCC21)C(CCC#N)(N=[N+]=[N-])C3O (centres unmarked) [Compound 25] ... NOT MET
9. COC(=O)C1(C)CCCC2(C)C1CCC13CC(CCC21)C(CCC(=O)O)(N=[N+]=[N-])C3O (centres unmarked) [Compound 24] ... NOT MET
10. CCOC(=O)CCC1=C[C@@]23CC[C@H]4[C@@](C)(CCC[C@@]4(C)C(=O)OC)[C@@H]2CC[C@@H]1C3 [Compound 7] ... NOT MET

###

Test system: Capan-1 (pancreatic adenocarcinoma)
Assay: Cell proliferation assay (IncuCyte)
Type: cell-based
Conditions: Homo sapiens, CAPAN-1; 72 h, duplicate, mean ± deviation
Examples of compounds with documented IC50 follow.
test.readout: IC50 (µM)

1) COC(=O)C1(C)CCCC2(C)C1CCC13CC(CCC21)C1(CCC(=O)N1)C3O (stereo not shown) [Compound 27] ... 3.7
2) COC(=O)[C@]1(C)CCC[C@@]2(C)[C@@H]3CC[C@@H]4C[C@@]3(CC[C@@H]21)C[C@@]4(CCC(=O)O)N=[N+]=[N-] [Compound 14] ... 44.5
3) CCOC(=O)CCC1=C[C@@]23CC[C@H]4[C@@](C)(CCC[C@@]4(C)C(=O)OC)[C@@H]2CC[C@@H]1C3 [Compound 7] ... 37.1
4) COC(=O)C1(C)CCCC2(C)C3CCC4CC3(CCC12)CC41CCCN1 (stereo not shown) [Compound 13] ... 11.5

###

System: Capan-1 (pancreatic adenocarcinoma)
Test: Cell proliferation assay (IncuCyte)
Assay type: cell-based
Conditions: Homo sapiens, CAPAN-1; 72 h, duplicate, mean ± deviation
Each entry below carries its recorded log10(IC50).
test.readout: log10(IC50) (log10 of the value in µM)

1) CC1(C(=O)O)CCCC2(C)C1CCC13CC(CCC21)C(CCC#N)(N=[N+]=[N-])C3O (stereo not shown) [Compound 25] ... 0.81
2) COC(=O)C1(C)CCCC2(C)C3CCC4CC3(CCC12)CC41CCC(=O)N1 (stereo not shown) [Compound 12] ... 0.08
3) COC(=O)[C@]1(C)CCC[C@@]2(C)[C@@H]3CC[C@@H]4C[C@@]3(CC[C@@H]21)[C@H]1OC(=O)CC=C41 [Compound 22] ... 0.11
4) COC(=O)C1(C)CCCC2(C)C3CCC4CC3(C=C4CCC#N)CCC12 (stereo not shown) [Compound 16] ... 1.26
5) COC(=O)C1(C)CCCC2(C)C1CCC13CC(CCC21)C(CCC(=O)O)(N=[N+]=[N-])C3O (stereo not shown) [Compound 24] ... 1.52
6) COC(=O)CCC1(N=[N+]=[N-])C2CCC3C4(C)CCCC(C)(C(=O)OC)C4CCC3(C2)C1O (stereo not shown) [Compound 26] ... 0.92
7) CCOC(=O)CC[C@@]1(N=[N+]=[N-])C[C@@]23CC[C@H]4[C@@](C)(CCC[C@@]4(C)C(=O)OC)[C@@H]2CC[C@@H]1C3 [Compound 11] ... 0.23

###

Test system: Capan-1 (pancreatic adenocarcinoma)
Test: Cell proliferation assay (IncuCyte)
Assay type: cell-based
Conditions: ratio IC50 hTERT RPE-1 / IC50 Capan-1
Entries and their SI Capan-1
test.readout: SI Capan-1

1) COC(=O)C1(C)CCCC2(C)C3CCC4CC3(CCC12)CC41CCCN1 (centres unmarked) ... 2.8
2) CC1(C(=O)O)CCCC2(C)C1CCC13CC(CCC21)C(CCC#N)(N=[N+]=[N-])C3O (centres unmarked) ... 5.3
3) COC(=O)[C@]1(C)CCC[C@@]2(C)[C@@H]3CC[C@@H]4C[C@@]3(CC[C@@H]21)[C@H]1OC(=O)CC=C41 ... 1.1
4) CCOC(=O)CC[C@@]1(N=[N+]=[N-])C[C@@]23CC[C@H]4[C@@](C)(CCC[C@@]4(C)C(=O)OC)[C@@H]2CC[C@@H]1C3 ... 1.1
5) COC(=O)C1(C)CCCC2(C)C3CCC4CC3(CCC12)CC41CCC(=O)N1 (centres unmarked) ... 6.3
6) COC(=O)C1(C)CCCC2(C)C1CCC13CC(CCC21)C1(CCC(=O)N1)C3O (centres unmarked) ... 7.5
7) COC(=O)CCC1(N=[N+]=[N-])C2CCC3C4(C)CCCC(C)(C(=O)OC)C4CCC3(C2)C1O (centres unmarked) ... 3.1
8) COC(=O)C1(C)CCCC2(C)C3CCC4CC3(C=C4CCC#N)CCC12 (centres unmarked) ... 2.1

###

Reported SImax values for the following molecules.
Test system: seven different tumor cell lines
Test: Proliferation assays, best value over the seven tumor cell lines
Format: cell-based
Conditions: highest selectivity index over the tumor cell lines (Figure 4)
test.readout: SImax

1) COC(=O)C1(C)CCCC2(C)C3CCC4CC3(C=C4CCC#N)CCC12 (stereo not shown) ... 4.9
2) COC(=O)C1(C)CCCC2(C)C3CCC4CC3(CCC12)CC41CCC(=O)N1 (stereo not shown) ... 9.5
3) COC(=O)C1(C)CCCC2(C)C1CCC13CC(CCC21)C1(CCC(=O)N1)C3O (stereo not shown) ... 14.6
4) COC(=O)C1(C)CCCC2(C)C3CCC4CC3(CCC12)CC41CCCN1 (stereo not shown) ... 32.2
5) CC1(C(=O)O)CCCC2(C)C1CCC13CC(CCC21)C(CCC#N)(N=[N+]=[N-])C3O (stereo not shown) ... 5.3
6) COC(=O)CCC1(N=[N+]=[N-])C2CCC3C4(C)CCCC(C)(C(=O)OC)C4CCC3(C2)C1O (stereo not shown) ... 43.2
7) CCOC(=O)CC[C@@]1(N=[N+]=[N-])C[C@@]23CC[C@H]4[C@@](C)(CCC[C@@]4(C)C(=O)OC)[C@@H]2CC[C@@H]1C3 ... 3.6

###

System: Z-138 (non-Hodgkin lymphoma)
Experiment: Cell proliferation assay (IncuCyte)
Type: cell-based
Details: Homo sapiens, Z-138; 72 h, duplicate, mean ± deviation
pIC50: −log10 of the molar value.
Each entry gets 0 (no) if its pIC50 stays under 5, and 1 (yes) if its pIC50 is 5 or above.

1. COC(=O)C1(C)CCCC2(C)C3CCC4CC3(CCC12)CC41CCC(=O)N1 (centres unmarked) ... 0 (no)
2. COC(=O)C1(C)CCCC2(C)C3CCC4CC3(C=C4CCC#N)CCC12 (centres unmarked) ... 0 (no)
3. COC(=O)C1(C)CCCC2(C)C1CCC13CC(CCC21)C(CCC(=O)O)(N=[N+]=[N-])C3O (centres unmarked) ... 0 (no)
4. CCOC(=O)CC[C@@]1(N=[N+]=[N-])C[C@@]23CC[C@H]4[C@@](C)(CCC[C@@]4(C)C(=O)OC)[C@@H]2CC[C@@H]1C3 ... 1 (yes)
5. COC(=O)CCC1(N=[N+]=[N-])C2CCC3C4(C)CCCC(C)(C(=O)OC)C4CCC3(C2)C1O (centres unmarked) ... 0 (no)
6. COC(=O)[C@]1(C)CCC[C@@]2(C)[C@@H]3CC[C@@H]4C[C@@]3(CC[C@@H]21)C[C@@]4(CCC(=O)O)N=[N+]=[N-] ... 0 (no)
7. COC(=O)[C@]1(C)CCC[C@@]2(C)[C@@H]3CC[C@@H]4C[C@@]3(CC[C@@H]21)[C@H]1OC(=O)CC=C41 ... 1 (yes)
8. CCOC(=O)CCC1=C[C@@]23CC[C@H]4[C@@](C)(CCC[C@@]4(C)C(=O)OC)[C@@H]2CC[C@@H]1C3 ... 0 (no)
9. COC(=O)C1(C)CCCC2(C)C1CCC13CC(CCC21)C1(CCC(=O)N1)C3O (centres unmarked) ... 0 (no)
10. CC1(C(=O)O)CCCC2(C)C1CCC13CC(CCC21)C(CCC#N)(N=[N+]=[N-])C3O (centres unmarked) ... 0 (no)
